Reference for the values: patent US8399683B2

Entries annotated with measured CC50
Test system: SK-OV-3 cells
Test: Growth inhibition of ovarian cancer cell line SK-OV-3 (MTT assay, cell survival)
Format: cell-based
Details: Homo sapiens, drug concentration that results in 50% cell survival, 72 hrs incubation, reported as ranges
Experimental: Compounds of the invention also were tested for their ability to inhibit the growth of an ovarian cancer cell line, SK-OV-3. […] At the end of the three (3) hour incubation period, 50 microliters of DMSO is added to each well to dissolve cells and the optical density (OD) of the wells is measured with a microplate reader (Victor^2 1420, Wallac, Finland) at 535 nm. Cell survival (CS) was calculated using the following equation: CS=(OD treated well/mean OD control wells)×100%. […]

stdin: Which CC50 value belongs to `CN[C@@H](C)C(=O)N[C@H](C(=O)N1CC[C@@H]2[C@H]1[C@@H](c1c[nH]c3ccc(F)cc13)CN2C(C)=O)C(C)(C)C` ?
stdout: < 100 nM

stdin: Which CC50 value belongs to `CN[C@@H](C)C(=O)N[C@H](C(=O)N1CC[C@@H]2[C@H]1[C@@H](c1c[nH]c3cc(F)ccc13)CN2Cc1ccccn1)C1CCCCC1` ?
stdout: < 100 nM

stdin: Which CC50 value belongs to `CCOC(=O)CN1C[C@H](c2c[nH]c3cc(F)ccc23)[C@@H]2[C@H]1CCN2C(=O)[C@@H](NC(=O)[C@H](C)NC)C1CCCCC1` ?
stdout: 100 to 1000 nM

stdin: Which CC50 value belongs to `CN[C@@H](C)C(=O)N[C@H](C(=O)N1CC[C@@H]2[C@H]1[C@@H](c1c[nH]c3cc(F)ccc13)CN2Cc1ccccc1)C(C)(C)C` ?
stdout: < 100 nM

stdin: Which CC50 value belongs to `CN[C@@H](C)C(=O)N[C@H](C(=O)N1CC[C@@H]2[C@H]1[C@@H](c1c[nH]c3cc(F)ccc13)CN2Cc1ccccc1)[C@@H](C)OC` ?
stdout: < 100 nM

----------
Biological target: cIAP-1 BIR-3 (Homo sapiens)
Sequence (Q13490 266-352 limits assumed): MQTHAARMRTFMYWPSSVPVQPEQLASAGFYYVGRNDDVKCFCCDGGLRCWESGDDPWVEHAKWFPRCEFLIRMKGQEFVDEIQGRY
Experiment: Fluorescence polarization binding affinity to cIAP-1 BIR-3 (competition with AbuRPF-K(5-Fam)-NH2)
Conditions: 5 nM labeled peptide, 40 nM BIR3, 15 min at RT, pH 7.5; reported as ranges; read-out: KD (c-IAP-1 BIR3)
Entries annotated with measured Kd

Example molecules with recorded Kd:
smiles: CN[C@@H](C)C(=O)N[C@H](C(=O)N1CC[C@H]2NC[C@@H](c3c[nH]c4ccccc34)[C@H]21)[C@@H](C)OC
Kd: 100 to 1000 nM

smiles: CCOC(=O)CN1C[C@H](c2c[nH]c3cc(F)ccc23)[C@@H]2[C@H]1CCN2C(=O)[C@@H](NC(=O)[C@H](C)NC)C1CCCCC1
Kd: < 100 nM

Consider the record given below.
stdin: Which Kd value belongs to `CN[C@@H](C)C(=O)N[C@H](C(=O)N1CC[C@@H]2[C@H]1[C@H](c1c[nH]c3cc(F)ccc13)CN2S(C)(=O)=O)[C@@H](C)OC` ?
stdout: 100 to 1000 nM

----------
Entries annotated with measured CC50
Test system: SK-OV-3 cells
Assay: Growth inhibition of ovarian cancer cell line SK-OV-3 (MTT assay, cell survival)
Type: cell-based
Details: Homo sapiens, drug concentration that results in 50% cell survival, 72 hrs incubation, reported as ranges

Example compounds with recorded CC50:
smiles: CN[C@@H](C)C(=O)N[C@@H](COC)C(=O)N1CC[C@@H]2[C@H]1[C@H](c1c[nH]c3cc(F)ccc13)CN2S(C)(=O)=O
CC50: > 10 µM
--
smiles: CO[C@H](C)[C@H](NC(=O)[C@H](C)N)C(=O)N1CC[C@H]2NC[C@H](c3cn(Cc4ccccc4)c4cc(F)ccc34)[C@H]21
CC50: 1 to 10 µM

stdin: Which CC50 value belongs to `CN[C@@H](C)C(=O)N[C@@H](CO)C(=O)N1CC[C@@H]2[C@H]1[C@@H](c1c[nH]c3cc(F)ccc13)CN2Cc1ccccc1` ?
stdout: 1 to 10 µM
